# Test system: NCI/ADR-RES
# Test: NCI tumour cell line growth inhibition, 48 h
Active and inactive are the calls of the source. Rule as the data show it: active = GI50 up to about 1.1 µM and inactive = higher.
Measured endpoint: GI50

| Compound | GI50 |
| --- | --- |
| CCN(CC)CCSc1c2cc(OC)ccc2nc2ccc(OC)cc12 | 7.67 µM (inactive) |
| CN(C)CCCN1c2ccccc2CCc2ccc([N+](=O)[O-])cc21 | 19.1 µM (inactive) |
| Brc1ccc2c(-c3csc(-c4c[nH]c5cc(Br)ccc45)n3)c[nH]c2c1 | 16 µM (inactive) |
| O=C(Nc1cc2c(=O)oc3ccccc3c2oc1=O)c1cccnc1 | > 100 µM (inactive) |
| COc1ccc(OC)c(C2CCCc3c2cnc2nc(N)nc(N)c32)c1 (stereo not drawn) | 1.04 µM (active) |
| C=CCC(C)C12CCNC(Cc3ccc(O)cc31)C2C (stereo not drawn) | > 100 µM (inactive) |

So what's the measured GI50 for this one? CC(=O)OCC1OC(O[C@@H]2C[C@H]3C(C)(C)[C@@H](OC(C)=O)CC[C@]3(C)[C@H]3CC[C@]45C[C@]4(CC[C@H]5[C@@H](C)C[C@@H](O)[C@H](O)C(C)(C)F)[C@@]32C)C(O)C(O)C1O (stereo partly drawn)
10.5 µM (inactive)

# input compound: C=C1C(=O)O[C@H]2C1[C@H](OC(=O)/C(C)=C\COC(C)=O)C[C@]1(CO1)[C@@H]1[C@H](O)[C@H]3O[C@@]3(C)[C@@H]12 (stereo partly drawn) ; wanted: its GI50
21.4 µM (inactive)

* * *

# Test system: ACHN
# Test: NCI tumour cell line growth inhibition, 48 h
Calls of active or inactive are those of the source. No stated cut-off is given here; in the data, active = GI50 up to about 1.1 µM and inactive = higher.
Measured endpoint: GI50

Please review the entries below; each comes with its answer.
| Compound | Result |
| --- | --- |
| CCOc1ccc(N/C(=C(/C(Cl)=C(/Cl)N2CCCCC2)[N+](=O)[O-])n2nnc3ccccc32)cc1 | 16.2 µM (inactive) |
| Cn1cc(C(=O)C[n+]2ccccc2)c2ccccc21 | > 100 µM (inactive) |
| COc1ccc(C(=O)/C=C2\Nc3cccnc3N\C2=C/C(=O)c2ccc(OC)cc2)cc1 | 17.7 µM (inactive) |
| COc1ccc(-c2c(C#N)c(-c3ccc(C)cc3)n(NS(=O)(=O)c3ccc(C)cc3)c(=O)c2C#N)cc1 | 50.6 µM (inactive) |
| O=C(Nc1ccc(C(F)(F)F)cc1[N+](=O)[O-])C(=O)Nn1c(S)nc2ccccc2c1=O | > 100 µM (inactive) |

Quick one: GI50 for N#Cc1cnn2ccn(C3OC(COC(=O)c4ccccc4)C(OC(=O)c4ccccc4)C3OC(=O)c3ccccc3)c12 (centres undefined) ?
> 21.5 µM (inactive)

Field request: GI50 | item: COc1cc(OC)c([C@@H]2OC(=O)C3C2C(=O)O[C@H]3c2cc(OC)c(OC)cc2OC)cc1OC (some centres undefined)
> 100 µM (inactive)

Look up GI50: O=C1Nc2cc(Cl)ccc2C(=O)N2CCC[C@@H]12
> 100 µM (inactive)

Request the reported GI50 associated with CN(C)CCCN1c2ccccc2CCc2ccc([N+](=O)[O-])cc21
34.6 µM (inactive)

* * *

Recorded GI50 values for a group of molecules are listed next.
# System: OVCAR-3
# Test: NCI tumour cell line growth inhibition, 48 h
Calls of active or inactive are those of the source. No stated cut-off is given here; in the data, active = GI50 up to about 1.1 µM and inactive = higher.

Examples with their reported GI50 follow.
| Molecule | Result |
| --- | --- |
| CCOC(=O)C[n+]1cccc(C2(c3cc4ccccc4[nH]3)OCCO2)c1 | > 100 µM (inactive) |
| CN(CCN(C)Cc1ccc(Cl)c(Cl)c1)CCN1CCCC1 | > 75.7 µM (inactive) |
| Cc1n[nH]c(=O)c2c3c([nH]c12)-c1ccccc1C3 | > 100 µM (inactive) |
| O=C1CCCN1C(=O)CS(=O)(=O)c1ccccc1 | > 100 µM (inactive) |

# GI50 lookup, item CC(NC(=O)c1ccc(NP(=O)(OCc2ccc([N+](=O)[O-])o2)N(C)CCCCCl)cc1)c1ccc(OCC2CCCCC2)c(C(N)=O)c1 (stereo unspecified)
11.6 µM (inactive)

Which GI50 is listed for COc1cc2c[n+](C)c3c4cc(OC)c(OC)cc4c(OC)cc3c2cc1OC ?
2.34 µM (inactive)

Query (molecule): O=[N+]([O-])c1ccc2sc(/C=N/c3ccccn3)cc2c1 ; field requested: GI50
41.8 µM (inactive)

Could you share which GI50 value was measured for CNC(=O)OCc1cnc([N+](=O)[O-])n1C ?
> 100 µM (inactive)

What value of measured GI50 is listed for Cc1cc(C)c(C#N)c(SC(=S)NC(=O)c2ccc(Cl)cc2)n1 ?
> 100 µM (inactive)

Look up GI50 for this molecule: CN(C(=O)c1cccs1)C(=S)N1CCN(c2ccccc2)CC1
> 100 µM (inactive)

Bench note: what GI50 did O=C(c1ccccc1)C1OC12C(=O)Nc1c(Cl)cc(Cl)cc12 (stereo unspecified) show?
60.3 µM (inactive)
